molecular target: STING (Homo sapiens, UniProt Q86WV6, G230A/H232R/R293Q/R71H); test: STING reporter assay in THP1-Dual KO-IFNAR2 cells (2′3′cGAMP stimulation, luciferase reporter); conditions: 15 μM 2′3′cGAMP stimulation, 24 h, read-out: Pharmaron, THP1_IFNAR2 STING 24 h Luci Normalized: GeoMean EC50
Sequence (Q86WV6 whole entry R71H/G230A/H232R/R293Q): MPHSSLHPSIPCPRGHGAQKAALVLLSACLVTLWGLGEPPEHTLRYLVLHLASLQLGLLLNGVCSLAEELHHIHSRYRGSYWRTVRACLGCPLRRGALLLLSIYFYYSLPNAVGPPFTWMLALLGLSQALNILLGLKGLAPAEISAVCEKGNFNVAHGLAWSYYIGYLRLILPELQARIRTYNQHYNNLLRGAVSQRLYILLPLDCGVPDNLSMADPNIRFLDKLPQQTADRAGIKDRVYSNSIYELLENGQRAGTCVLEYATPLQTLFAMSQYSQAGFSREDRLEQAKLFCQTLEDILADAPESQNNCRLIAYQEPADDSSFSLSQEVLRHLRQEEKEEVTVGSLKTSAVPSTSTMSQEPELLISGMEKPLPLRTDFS
pEC50: −log10 of the molar value.
Here, each record is paired with measured pEC50 data.

# count of solved cases: 8
Compound: CO[C@H]1C[C@@H](C(=O)Nc2c[nH]c3ccc(CCOc4ccc(C(F)(F)F)cc4)cc23)C1 [Compound 221]
pEC50: 6.70 to 7.40
//
Compound: CC(=O)Nc1c[nH]c2ccc(CCOc3ccc(C4CCC4)cc3)cc12 [Compound 230]
pEC50: 6.70 to 7.40
//
Compound: CC(C)(C)OC(=O)N1CC(C)(C(=O)Nc2c[nH]c3ccc(O[C@H]4C[C@H](c5ccc(C(F)(F)F)cc5)C4)cc23)C1 [Compound 568]
pEC50: 6.00 to 6.70
//
Compound: N#CC1(C(=O)Nc2c[nH]c3ccc(O[C@H]4C[C@H](c5ccc(C(F)(F)F)cc5)C4)cc23)CC1 [Compound 565]
pEC50: 6.00 to 6.70
//
Compound: C[C@@H]1OC[C@H]1C(=O)Nc1c[nH]c2ccc(O[C@H]3C[C@H](c4ccc(C(F)(F)F)cc4)C3)cc12 [Compound 423]
pEC50: 6.00 to 6.70
//
Compound: CC1(C(=O)Nc2c[nH]c3ccc(CCOc4ccc(C(F)(F)F)cc4)cc23)CC1 [Compound 399]
pEC50: 6.00 to 6.70
//
Compound: O=C(Nc1c[nH]c2ccc(CC(O)Cc3ccc(C(F)(F)F)cc3)cc12)C1CC1 (single isomer, unassigned) [Compound 200]
pEC50: 6.00 to 6.70
//
Compound: CC(=O)Nc1c[nH]c2ccc(CC(O)Cc3ccc(C(F)(F)F)cc3)cc12 (stereo not shown) [Compound 284]
pEC50: 6.00 to 6.70

# next compound below
stdin: Bench note: what pEC50 did CC1(C(=O)Nc2c[nH]c3ccc(CC(O)Cc4ccc(C(F)(F)F)cn4)cc23)CC1 (stereo not shown) [Compound 540] show?
stdout: 5.30 to 6.00
